# Test system: Sprague Dawley rats
# Assay name: Feed intake in Sprague Dawley rats
# Format: in vivo, rat
# Setup conditions: intraperitoneal, 25 mg/kg, cumulative feed intake vs vehicle, 24 hour
Quantity name: % reduction in food in take, 24 hour (%)
Give the number; % is assumed, so skip it.

Identify measured % reduction in food in take, 24 hour associated with Cc1c(Oc2ccc(C[C@H]3CO[S@](=O)OC3)cc2)ncnc1OC1CCN(c2nc(C(C)C)no2)CC1
9

Write down % reduction in food in take, 24 hour measured for item Cc1c(Oc2ccc(C[C@H]3CO[S@@](=O)OC3)cc2)ncnc1OC1CCN(c2nc(C(C)C)no2)CC1
4

Report measured % reduction in food in take, 24 hour; entry is CCc1cnc(N2CCC(Oc3ncnc(Oc4ccc(C[C@H]5CO[S@@](=O)OC5)cc4)c3C)CC2)nc1
9

Check the records and state % reduction in food in take, 24 hour for Cc1c(Oc2ccc([C@H]3CO[S@@](=O)OC3)cc2)ncnc1OC1CCN(c2ncccn2)CC1
8

Attention now turns to another entry.
Return reported % reduction in food in take, 24 hour. Input molecule: CC(C)(C)OC(=O)N1CCC(c2nc(COc3ccc([C@H]4CO[S@@](=O)OC4)cc3)cs2)CC1
13

###

Listed here are molecules together with their documented pEC50.
# Tested system: recombinant human GPR 119 receptor (Homo sapiens, UniProt Q8TDV5)
# Sequence (Q8TDV5 whole entry): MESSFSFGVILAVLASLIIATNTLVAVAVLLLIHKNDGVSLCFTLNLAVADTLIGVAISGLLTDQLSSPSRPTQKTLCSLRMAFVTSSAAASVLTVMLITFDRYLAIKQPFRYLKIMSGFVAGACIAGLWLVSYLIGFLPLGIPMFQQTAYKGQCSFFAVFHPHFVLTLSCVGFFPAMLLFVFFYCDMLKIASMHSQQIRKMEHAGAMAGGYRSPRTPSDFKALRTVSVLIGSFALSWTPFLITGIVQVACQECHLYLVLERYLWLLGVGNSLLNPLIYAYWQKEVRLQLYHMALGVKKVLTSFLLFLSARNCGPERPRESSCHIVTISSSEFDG
# Assay name: cAMP assay in stable cell line expressing recombinant human GPR 119 receptor
# Setup conditions: intracellular cAMP
pEC50 here is simply -log10 of the concentration when that concentration is written in mol/L.

Some solved entries appear below for comparison.
Please supply the value of reported pEC50 for the item CCc1cnc(N2CCC(Oc3ncnc(Oc4ccc([C@H]5CO[S@@](=O)OC5)cc4)c3C)CC2)nc1
7.92

Return reported pEC50. Input molecule: CCc1cnc(N2CCC(Oc3ncnc(Oc4ccc([C@H]5CO[S@](=O)OC5)cc4)c3C)CC2)nc1
7.13

Entry Cc1c(Oc2ccc([C@H]3CO[S@](=O)OC3)cc2)ncnc1OC1CCN(C(=O)OCC(C)C)CC1 needs its pEC50 filled in; supply it.
7.24

Specify pEC50 for CCOC(=O)N1CCC(Oc2ncnc(Oc3ccc([C@H]4CO[S@](=O)OC4)cc3)c2C)CC1 and stop.
7.03

Others:
Given Cc1c(Oc2ccc([C@H]3CO[S@](=O)OC3)cc2)ncnc1OC1CCN(C(=O)OC(C)(C)C)CC1 , respond with its pEC50.
7.82

State its pEC50: CCOC(=O)N1CCC(Oc2ncnc(Oc3ccc(C[C@H]4CO[S@@](=O)OC4)cc3)c2C)CC1
7.03

Tell me pEC50 reported for Cc1c(Oc2ccc(C[C@H]3CO[S@](=O)OC3)cc2)ncnc1OC1CCN(C(=O)OCC(C)C)CC1
6.97

Give a short answer stating reported pEC50 for Cc1c(Oc2ccc([C@H]3CO[S@@](=O)OC3)cc2)ncnc1OC1CCN(C(=O)OCC(C)C)CC1 .
7.57

Answer with the recorded pEC50 of CC(C)c1noc(C2CCN(c3ncnc(Oc4ccc([C@H]5CO[S@@](=O)OC5)cc4)c3[N+](=O)[O-])CC2)n1 only.
7.51

###

# Tested on: Sprague Dawley rats
# Assay name: Feed intake in Sprague Dawley rats
# Type: in vivo, rat
# Setup conditions: Rattus norvegicus; oral, 50 mg/kg, cumulative feed intake vs vehicle, 6 hour; read-out: % reduction in food in take, 6 hour
# Procedure: In Vivo Efficacy Studies: Feed Intake in Sprague Dawley Rats: Sprague Dawley rats of 6-8 week age are used for this experiment they are kept for acclimatization in reversed light/dark cycle for 15 days. Animals will have free access to a standard chow diet and water during acclimatization period. […] Grouping was done based on the monitored feed intake during the training days. […] Exactly 30 min. after treatment, measured amount of standard chow diet is provided and recorded as O-min feed offered. […]
Quantity name: inhibition in vivo at 50 mg/kg (%)
Give a bare numeral; the unit % is implied.

Determine from records and report inhibition in vivo at 50 mg/kg for Cc1c(Oc2ccc([C@H]3CO[S@@](=O)OC3)cc2)ncnc1OC1CCN(C(=O)OCC(C)C)CC1
23

---
Please indicate inhibition in vivo at 50 mg/kg recorded for CCc1cnc(N2CCC(Oc3ncnc(Oc4ccc([C@H]5CO[S@@](=O)OC5)cc4)c3C)CC2)nc1
6

Give the measured inhibition in vivo at 50 mg/kg for Cc1c(Oc2ccc(C[C@H]3CO[S@](=O)OC3)cc2)ncnc1OC1CCN(C(=O)OCC(C)C)CC1
24

Please supply the value of reported inhibition in vivo at 50 mg/kg for the item Cc1c(Oc2ccc([C@H]3CO[S@](=O)OC3)cc2)ncnc1OC1CCN(C(=O)OCC(C)C)CC1
9

Report inhibition in vivo at 50 mg/kg for Cc1c(Oc2ccc([C@H]3CO[S@](=O)OC3)cc2)ncnc1OC1CCN(c2nc(C(C)C)no2)CC1
9.5

Give the reported inhibition in vivo at 50 mg/kg for this molecule. CCc1cnc(N2CCC(Oc3ncnc(Oc4ccc([C@H]5CO[S@](=O)OC5)cc4)c3C)CC2)nc1
15
